- tested.on: human thyroid receptor alpha ligand-binding domain (LBD) (Homo sapiens, UniProt P10827)
- protocol.description: TR-FRET thyroid receptor alpha coactivator assay (THR biochemical assay, Assay 1)
- settings: Table 4, THR-alpha, read-out: Activity category Assay 1 (EC50, THR-alpha agonist activity)
Form field: EC50 (one value per entry).

Quick check: EC50 on human thyroid receptor alpha ligand-binding domain (LBD) (Homo sapiens, UniProt P10827), item Cc1cc(-n2nc(C#N)c(=O)[nH]c2=O)cc(C)c1Cc1ccc2[nH]cc(C(C)C)c2n1 [Compound 31] ?
< 0.05 µM

Quick check: EC50 on human thyroid receptor alpha ligand-binding domain (LBD) (Homo sapiens, UniProt P10827), item Nc1nn(-c2cc(Cl)c(Oc3cc(C4CCC(F)(F)CC4)c(=O)[nH]n3)c(Cl)c2)c(=O)[nH]c1=O [Compound 97] ?
1 to 25 µM

Quick check: EC50 on human thyroid receptor alpha ligand-binding domain (LBD) (Homo sapiens, UniProt P10827), item Cc1cc(-n2nc(C#N)c(=O)[nH]c2=O)cc(C)c1Cc1ccc2[nH]cc(C(C)C)c2c1 [Compound 3] ?
> 25 µM

Quick check: EC50 on human thyroid receptor alpha ligand-binding domain (LBD) (Homo sapiens, UniProt P10827), item O=c1cnn(-c2cc(Cl)c(Oc3cc(-c4ccc5sccc5c4)c(=O)[nH]n3)c(Cl)c2)c(=O)[nH]1 [Compound 135] ?
> 25 µM

---

Form field: Emax (one value per entry).
- tested.on: THR alpha (Homo sapiens, UniProt P10827)
- Construct: expressed in transfected cells; host or cells: HEK293T (ATCC CRL-3216)
- Sequence (P10827 1-410 isoform P10827-2): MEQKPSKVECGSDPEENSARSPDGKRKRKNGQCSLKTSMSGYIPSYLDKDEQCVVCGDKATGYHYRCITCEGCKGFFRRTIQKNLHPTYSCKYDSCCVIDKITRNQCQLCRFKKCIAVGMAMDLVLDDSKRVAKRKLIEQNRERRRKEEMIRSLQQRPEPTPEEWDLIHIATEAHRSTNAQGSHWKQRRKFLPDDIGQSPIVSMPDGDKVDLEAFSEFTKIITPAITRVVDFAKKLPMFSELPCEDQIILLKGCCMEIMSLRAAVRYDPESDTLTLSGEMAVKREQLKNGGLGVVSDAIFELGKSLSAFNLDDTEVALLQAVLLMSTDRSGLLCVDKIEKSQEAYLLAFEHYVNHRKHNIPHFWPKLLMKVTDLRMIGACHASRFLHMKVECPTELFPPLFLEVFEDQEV
- Sequence (P19793 1-462 partner): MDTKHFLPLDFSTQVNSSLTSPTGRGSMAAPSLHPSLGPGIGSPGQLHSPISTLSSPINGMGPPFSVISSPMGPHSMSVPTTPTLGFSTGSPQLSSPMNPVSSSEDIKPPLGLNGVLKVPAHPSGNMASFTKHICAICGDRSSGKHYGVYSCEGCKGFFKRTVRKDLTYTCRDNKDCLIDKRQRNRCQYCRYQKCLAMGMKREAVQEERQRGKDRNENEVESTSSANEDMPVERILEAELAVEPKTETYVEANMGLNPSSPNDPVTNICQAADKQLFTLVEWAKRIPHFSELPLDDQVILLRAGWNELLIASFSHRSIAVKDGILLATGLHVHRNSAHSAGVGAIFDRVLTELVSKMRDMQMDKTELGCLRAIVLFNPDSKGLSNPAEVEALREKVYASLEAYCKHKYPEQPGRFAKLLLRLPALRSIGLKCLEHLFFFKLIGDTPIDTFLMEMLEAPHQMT
- protocol.description: HEK293T THR alpha/RXR luciferase reporter assay (Assay 2)
- Assay type: cell-based
- settings: HEK-293T, Table 5; Assay 2; THRα; read-out: Activity category Assay 2 THRα (Emax)
- Experimental: HEK293T Reporter THRalpha/Beta/RXR Reporter Assay (Assay 2) The purpose of this assay is to evaluate the effect of compounds on the thyroid hormone nuclear receptor pathway in HEK293T cells. […] Transfected cells are stimulated with test compounds for 18-24 hours before activation of the thyroid hormone pathway is measured via a luciferase read-out. Procedure. […] Percent agonism is calculated using the following equation: 100× (sample-negative control)/(positive control-negative control).

Examples with answers:
Nc1nn(-c2cc(Cl)c(Oc3cc(Cc4ccc(O)cn4)c(=O)[nH]n3)c(Cl)c2)c(=O)[nH]c1=O    < 50%
Nc1nn(-c2cc(Cl)c(Oc3cc(-c4ccc5c(c4)CCCC5)c(=O)[nH]n3)c(Cl)c2)c(=O)[nH]c1=O    < 50%
CC(c1cc(Oc2c(Cl)cc(-n3nc(N)c(=O)[nH]c3=O)cc2Cl)n[nH]c1=O)C1CC(F)(F)C1 (stereo not shown) [Compound 61]    > 75%

Here is another compound to look at.
Consider the compound shown here: CC(C)c1c[nH]c2ccc(Oc3c(Cl)cc(-n4nc(C#N)c(=O)[nH]c4=O)cc3Cl)nc12 What is its recorded Emax?
50 to 75%
